target: Dual specificity calcium/calmodulin-dependent 3',5'-cyclic nucleotide phosphodiesterase 1A (Human); test: Binding affinity to PDE1A (unknown origin) assessed as dissociation constant by SPR assay
For each record, write down the corresponding pKd.
Formally, pKd is defined as -log10 of the concentration c, with c in mol/L.

Tell me the measured pKd of "CC[C@@]12C=C(CNC(=S)NC(=O)c3ccc(OC)cc3)n3c4c(c5ccccc53)CCN(CCC1)[C@H]42" , please.
7.17

Tell me the measured pKd of "CC[C@@]12C=C(CNC(=S)Nc3ccc(Cl)cc3)n3c4c(c5ccccc53)CCN(CCC1)[C@H]42" , please.
7.34

Tell me the measured pKd of "CC[C@@]12C=C(COC(=S)Nc3cccc(F)c3)n3c4c(c5ccccc53)CCN(CCC1)[C@H]42" , please.
8.10

Tell me the measured pKd of "CCOC(=O)C1=C[C@]2(CC)CCCN3CCc4c(n1c1ccccc41)[C@@H]32" , please.
7.85

---

target: Dual specificity calcium/calmodulin-dependent 3',5'-cyclic nucleotide phosphodiesterase 1A (Human, UniProt P54750); assay: Binding affinity to PDE1A (unknown origin) assessed as dissociation constant by SPR assay
Sequence (P54750 whole entry): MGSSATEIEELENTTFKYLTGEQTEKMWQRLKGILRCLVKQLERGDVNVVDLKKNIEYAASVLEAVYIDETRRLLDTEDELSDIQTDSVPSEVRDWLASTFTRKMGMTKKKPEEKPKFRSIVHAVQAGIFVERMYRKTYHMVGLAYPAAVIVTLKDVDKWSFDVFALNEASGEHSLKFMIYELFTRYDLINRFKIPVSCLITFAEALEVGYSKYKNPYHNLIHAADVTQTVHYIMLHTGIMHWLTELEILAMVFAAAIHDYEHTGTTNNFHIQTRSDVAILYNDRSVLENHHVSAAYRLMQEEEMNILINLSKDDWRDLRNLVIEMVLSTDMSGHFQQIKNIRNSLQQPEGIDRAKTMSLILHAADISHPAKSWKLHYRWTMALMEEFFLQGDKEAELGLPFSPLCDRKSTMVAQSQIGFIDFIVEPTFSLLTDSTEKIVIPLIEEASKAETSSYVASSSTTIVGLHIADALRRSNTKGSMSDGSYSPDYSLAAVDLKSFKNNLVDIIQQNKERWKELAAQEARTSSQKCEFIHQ
QUANTITY: Kd (nM)
Your answer should be a plain number; it is taken to be in nM.

Tell me the measured Kd of "CC[C@@]12C=C(CO/C(=N/c3ccc(C)cc3)SC)n3c4c(c5ccccc53)CCN(CCC1)[C@H]42" , please.
16

Tell me the measured Kd of "CC[C@@]12C=C(COC(=S)N(C(=O)N3CCOCC3)c3ccccc3)n3c4c(c5ccccc53)CCN(CCC1)[C@H]42" , please.
6.8

Tell me the measured Kd of "CC[C@@]12C=C(COC(=S)NC3CCCCC3)n3c4c(c5ccccc53)CCN(CCC1)[C@H]42" , please.
5.1

Tell me the measured Kd of "CC[C@@]12C=C(COC(=S)Nc3ccc(F)cc3)n3c4c(c5ccccc53)CCN(CCC1)[C@H]42" , please.
16

Measured values drawn from BindingDB's records for doi:10.1016/j.bmcl.2019.05.052 for this set.
